Entry source: patent US9000189B2

- Test system: green peach aphid (Myzus persicae)
- assay-explanation: Example 3: Myzus test (MYZUPE spray treatment)
- Format: in vivo
- test-context: 144 h, application rate 500 g/ha, after 6 d, read-out: efficacy (effect in %, aphids killed)
readout-name: pest or weed control at 500 g/ha

Below, each entry is followed by its recorded pest or weed control at 500 g/ha result.
- substance-smiles: "COC1=C(c2c(C)ccc(-c3ccc(F)cc3)c2C)C(=O)NC12CCOCC2"
  pest or weed control at 500 g/ha: "≥ 80%"
- substance-smiles: "CCOC(=O)OC1=C(c2c(C)ccc(-c3ccc(F)cc3)c2C)C(=O)NC12CCOCC2"
  pest or weed control at 500 g/ha: "≥ 80%"
- substance-smiles: "Cc1ccc(-c2ccc(F)cc2)cc1C1=C(O)C2(CCCC2)OC1=O"
  pest or weed control at 500 g/ha: "≥ 80%"
- substance-smiles: "Cc1ccc(-c2ccc(F)cc2)cc1C1=C(O)C2(CCOCC2)NC1=O"
  pest or weed control at 500 g/ha: "≥ 80%"

# Cc1ccc(-c2ccc(F)c(F)c2)c(C)c1C1=C(OC(=O)C(C)C)C2(CCOCC2)OC1=O with green peach aphid (Myzus persicae): pest or weed control at 500 g/ha is ≥ 80%

Tested on green peach aphid (Myzus persicae): COc1ccc(-c2ccc(C)c(C3=C(O)C4(CCOCC4)NC3=O)c2)cc1F . Observed pest or weed control at 500 g/ha: ≥ 80%

Considering CCC(=O)OC1=C(c2c(C)ccc(-c3ccc(F)cc3)c2C)C(=O)NC12CCOCC2 , its pest or weed control at 500 g/ha with green peach aphid (Myzus persicae) was recorded as ≥ 80%

Sample O=C1NC2(CCOCC2)C(O)=C1c1cc(-c2ccc(F)c(C(F)(F)F)c2)ccc1Cl , system: green peach aphid (Myzus persicae). Its pest or weed control at 500 g/ha is ≥ 80%

* * *

- assay-explanation: Determination of the log P values by HPLC on a reversed-phase column (C18), acidic range
- Format: physicochemical
- test-context: reversed-phase HPLC column (C18); HPLC reversed-phase C18, 43° C., acidic range (pH 2.3)
Quick reference: chromatographic logP of the listed items.
Give the value as a plain number.

Below, each entry is followed by its recorded chromatographic logP result.
- substance-smiles: "CCOC(=O)C1(OC(=O)Cc2cc(Br)ccc2C)CCCC1"
  chromatographic logP: 4.52
- substance-smiles: "CCOC(=O)C1(OC(=O)Cc2cc(-c3ccc(F)cc3)ccc2C)CCCCC1"
  chromatographic logP: 5.43

# chromatographic logP of Cc1ccc(-c2ccc(F)cc2)cc1C1=C(O)C2(CCCC2)OC1=O = 3.12

According to the records, this compound Cc1ccc(-c2ccc(F)cc2)cc1C1=C(OC(=O)C(C)C)C2(CCCC2)OC1=O displays chromatographic logP of 4.85

* * *

- assay-explanation: Determination of the log P values by HPLC on a reversed-phase column (C18), acidic range
- Format: physicochemical
- test-context: HPLC reversed-phase C18, 43° C., acidic range (pH 2.3)
readout-name: logP
Keep it simple and answer with nothing but the number.

Here are 5 molecules together with their reported answers.
- substance-smiles: "O=C1OC2(CCCC2)C(O)=C1c1cc(-c2ccc(F)c(F)c2)ccc1Cl"
  logP: 3.19
- substance-smiles: "O=C1OC2(CCCCC2)C(O)=C1c1cc(-c2ccc(F)c(F)c2)ccc1Cl"
  logP: 3.48
- substance-smiles: "O=C1OC2(CCCC2)C(O)=C1c1cc(-c2ccc(F)cc2F)ccc1Cl"
  logP: 3.16
- substance-smiles: "O=C1OC2(CCCCC2)C(O)=C1c1cc(-c2cc(F)c(F)c(F)c2)ccc1Cl"
  logP: 3.65
- substance-smiles: "O=C1OC2(CCCCC2)C(O)=C1c1cc(-c2ccc(F)cc2)ccc1Cl"
  logP: 3.37

Per the record, Cc1ccc(-c2ccc(F)c(F)c2)cc1C1=C(O)C2(CCCC2)OC1=O has logP of 3.25

# logP (molecule: Cc1ccc(-c2ccc(F)cc2)c(C)c1C1=C(O)C2(CCOCC2)OC1=O ) is 2.76

logP for Cc1ccc(-c2ccc(F)c(F)c2)cc1C1=C(O)C2(CCOCC2)OC1=O is 2.69

* * *

- assay-explanation: Determination of the log P values by HPLC on a reversed-phase column (C18), acidic range
- Assay type: physicochemical
- test-context: HPLC reversed-phase C18, 43° C., acidic range (pH 2.3)
readout-name: logP

- compound: "Cc1ccc(-c2ccc(F)c(F)c2)c(C)c1C1=C(O)C2(CCOCC2)OC1=O [Example I-2-a-16]"
  logP: 2.88

// O=C1OC2(CCCC2)C(O)=C1c1cc(-c2cc(F)c(F)c(F)c2)ccc1Cl [Example I-2-a-6] : logP value = 3.35

The value of logP measured for the compound Cc1ccc(-c2cc(F)c(F)c(F)c2)cc1C1=C(O)C2(CCOCC2)OC1=O [Example I-2-a-14] turned out to be 2.87

For reference, reported logP for O=C1OC2(CCCC2)C(O)=C1c1cc(-c2ccc(F)cc2)ccc1Cl [Example I-2-a-7] stands at 3.09

Lab note: measured logP of Cc1ccc(-c2ccc(F)cc2)cc1C1=C(O)C2(CCOCC2)OC1=O [Example I-2-a-12] was 2.62

For record Cc1ccc(-c2ccc(F)c(Cl)c2)cc1C1=C(O)C2(CCCC2)OC1=O [Example I-2-a-4] the listed logP is 3.50
